Data origin: ChEMBL document CHEMBL1138106

- method.summary: Clearance in BALB/c mice at 10 mg/kg, iv
- Assay type: ADME, organism-based
- Set-up: dose 10 mg/kg, route intravenous
- measurement.parameters: mouse, in vivo
observation.type: clearance

# clearance (compound: Cc1cc(S(=O)(=O)N[C@@H](C(=O)NO)C2CCOCC2)ccc1F ) is 72 mL/min/kg

###

- method.summary: Bioavailability in Beagle dog […], po
- Type: ADME, organism-based, Canis lupus familiaris
- measurement.parameters: in vivo
observation.type: bioavailability (%)
Reply with just the number (in %).

Just so you know, measured bioavailability for Cc1cc(S(=O)(=O)N[C@@H](C(=O)NO)C2CCOCC2)ccc1F came out at 57

###

- method.summary: Half life in New Zealand White rabbit at 5 mg/kg, iv
- Assay type: ADME, organism-based, Oryctolagus cuniculus
- Set-up: dose 5 mg/kg, route intravenous
- measurement.parameters: in vivo
observation.type: half-life
Give the value; after it, write the unit.

response.value for Cc1cc(S(=O)(=O)N[C@@H](C(=O)NO)C2CCOCC2)ccc1F (field: half-life) = 2.5 h

###

- method.summary: Cmax in Sprague-Dawley rat at 1 mg/kg, iv
- Assay type: ADME, organism-based
- Set-up: dose 1 mg/kg, route intravenous
- measurement.parameters: in vivo
observation.type: Cmax (nM)
Kindly provide the numeric value in nM only, without the unit symbol.

compound Cc1cc(S(=O)(=O)N[C@@H](C(=O)NO)C2CCOCC2)ccc1F , Cmax observed: 240

###

- method.summary: Solubility in water
- Format: physicochemical
observation.type: solubility
Give the value; after it, write the unit.

solubility recorded for this molecule, Cc1cc(S(=O)(=O)N[C@@H](C(=O)NO)C2CCOCC2)ccc1F , is 2500 µg/mL

###

- assayed.target: Disintegrin and metalloproteinase domain-containing protein 17 (Homo sapiens)
- Sequence (P78536 whole entry, the tested form may be a part): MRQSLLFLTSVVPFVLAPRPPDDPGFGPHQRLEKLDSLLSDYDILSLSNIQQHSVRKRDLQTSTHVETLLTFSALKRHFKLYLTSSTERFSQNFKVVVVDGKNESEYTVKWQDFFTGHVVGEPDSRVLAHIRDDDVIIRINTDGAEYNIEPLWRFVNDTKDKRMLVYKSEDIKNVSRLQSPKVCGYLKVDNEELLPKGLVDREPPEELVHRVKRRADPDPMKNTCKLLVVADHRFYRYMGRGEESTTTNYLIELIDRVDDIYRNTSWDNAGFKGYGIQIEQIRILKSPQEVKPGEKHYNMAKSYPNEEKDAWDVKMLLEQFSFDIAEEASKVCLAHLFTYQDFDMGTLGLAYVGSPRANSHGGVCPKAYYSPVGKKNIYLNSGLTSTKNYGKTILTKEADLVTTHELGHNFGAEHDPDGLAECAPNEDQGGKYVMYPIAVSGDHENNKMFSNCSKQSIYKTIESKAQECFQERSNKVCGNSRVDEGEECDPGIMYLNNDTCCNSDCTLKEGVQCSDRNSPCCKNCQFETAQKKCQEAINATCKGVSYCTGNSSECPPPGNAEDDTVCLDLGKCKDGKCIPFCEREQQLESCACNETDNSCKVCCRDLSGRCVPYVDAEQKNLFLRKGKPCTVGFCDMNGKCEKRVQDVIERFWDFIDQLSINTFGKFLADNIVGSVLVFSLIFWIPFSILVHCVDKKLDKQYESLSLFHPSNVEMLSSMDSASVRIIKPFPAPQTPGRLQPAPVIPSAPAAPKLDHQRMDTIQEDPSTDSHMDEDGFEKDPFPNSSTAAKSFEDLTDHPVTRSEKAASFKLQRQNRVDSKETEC
observation.type: pIC50
Worth noting: pIC50 values are minus log10 of concentrations stated in mol/L.

The observed pIC50 for Cc1cc(S(=O)(=O)N[C@@H](C(=O)NO)C2CCOCC2)ccc1F when tested with Disintegrin and metalloproteinase domain-containing protein 17 (Homo sapiens) stands at 5.37

###

- method.summary: Cmax in Guinea pig at 2 mg/kg, iv
- Assay type: ADME, organism-based, Cavia porcellus
- Design: dose 2 mg/kg, route intravenous
- measurement.parameters: in vivo
observation.type: Cmax (nM)
Number in nM, nothing else.

// Cmax lookup, compound = Cc1cc(S(=O)(=O)N[C@@H](C(=O)NO)C2CCOCC2)ccc1F , result: 250

###

- method.summary: Bioavailability in Sprague-Dawley rat […], po
- Assay type: ADME, organism-based
- measurement.parameters: in vivo
observation.type: bioavailability (%)
I only need the number, in %, no unit after it.

// bioavailability value for Cc1cc(S(=O)(=O)N[C@@H](C(=O)NO)C2CCOCC2)ccc1F : 51

###

- assayed.target: Lethal factor (Bacillus anthracis)
- Sequence (P15917 whole entry): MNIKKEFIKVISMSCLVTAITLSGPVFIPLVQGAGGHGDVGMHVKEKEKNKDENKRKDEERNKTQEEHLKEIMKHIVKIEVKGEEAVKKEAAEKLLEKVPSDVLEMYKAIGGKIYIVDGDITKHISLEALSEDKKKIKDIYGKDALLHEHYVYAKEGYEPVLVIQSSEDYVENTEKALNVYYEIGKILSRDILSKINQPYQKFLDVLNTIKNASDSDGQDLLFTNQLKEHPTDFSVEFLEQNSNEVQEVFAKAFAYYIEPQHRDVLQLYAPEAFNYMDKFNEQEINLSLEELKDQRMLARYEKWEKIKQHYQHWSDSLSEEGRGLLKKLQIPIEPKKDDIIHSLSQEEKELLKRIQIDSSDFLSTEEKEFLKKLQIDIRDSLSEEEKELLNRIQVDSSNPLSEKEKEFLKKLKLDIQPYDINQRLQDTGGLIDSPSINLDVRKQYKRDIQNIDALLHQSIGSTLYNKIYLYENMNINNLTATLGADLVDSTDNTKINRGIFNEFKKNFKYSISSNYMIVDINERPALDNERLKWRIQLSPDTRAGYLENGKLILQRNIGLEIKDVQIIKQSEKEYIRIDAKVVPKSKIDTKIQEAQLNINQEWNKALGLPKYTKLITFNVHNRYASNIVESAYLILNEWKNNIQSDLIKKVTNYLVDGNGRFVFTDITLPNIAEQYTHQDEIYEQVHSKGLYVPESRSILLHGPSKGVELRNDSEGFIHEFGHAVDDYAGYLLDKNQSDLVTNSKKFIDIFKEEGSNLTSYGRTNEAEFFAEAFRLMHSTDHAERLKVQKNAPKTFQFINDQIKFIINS
Below, each entry is listed alongside its reported IC50.
# number only, unit nM dropped from output

Entry CC(C)[C@@H](NS(=O)(=O)CCc1ccccc1)C(=O)NO , tested on Lethal factor (Bacillus anthracis), has a reported IC50 of 11900

Bench note, Lethal factor (Bacillus anthracis): entry Cc1ccc(S(=O)(=O)N[C@@H](C(=O)NO)C(C)C)cc1F , its IC50 = 5180

GET /values?item= Cc1cc(S(=O)(=O)N[C@H](CCCN=C(N)N)C(=O)NO)ccc1F &system= Lethal factor (Bacillus anthracis) returns IC50: 40
